- Tested on: Streptococcus pyogenes
- test_description: Antibacterial activity against Streptococcus pyogenes C-203 by micro broth method
- Assay type: functional
Response field label takes Condition met when MIC is strictly below 8 µg/mL and Condition not met in all other cases.

[
  {
    "molecule": "O=C1O[C@@H](CO)CN1c1ccc(N2CCCOCC2)cc1",
    "assigned_label": "Condition not met"
  },
  {
    "molecule": "C[Si](C)(C)C#Cc1cn(C[C@H]2CN(c3cc(F)c(N4CCCOCC4)c(F)c3)C(=O)O2)nn1",
    "assigned_label": "Condition met"
  },
  {
    "molecule": "NC(=O)[C@H]1CN(c2ccc(N3CCCOCC3)cc2)C(=O)O1",
    "assigned_label": "Condition not met"
  },
  {
    "molecule": "CNC(=O)[C@H]1CN(c2cc(F)c(N3CCCOCC3)c(F)c2F)C(=O)O1",
    "assigned_label": "Condition not met"
  },
  {
    "molecule": "NC(=O)[C@H]1CN(c2cc(F)c(N3CCCOCC3)c(F)c2F)C(=O)O1",
    "assigned_label": "Condition not met"
  },
  {
    "molecule": "CCC(=O)NC[C@H]1CN(c2cc(F)c(N3CCCOCC3)c(F)c2)C(=O)O1",
    "assigned_label": "Condition met"
  },
  {
    "molecule": "O=C1O[C@@H](CO)CN1c1cc(F)c(N2CCCOCC2)c(F)c1",
    "assigned_label": "Condition met"
  },
  {
    "molecule": "CC(=O)NC[C@H]1CN(c2ccc(N3CCOCC3)c(F)c2)C(=O)O1 [LINEZOLID]",
    "assigned_label": "Condition met"
  },
  {
    "molecule": "C#Cc1cn(C[C@H]2CN(c3cc(F)c(N4CCCOCC4)c(F)c3)C(=O)O2)nn1",
    "assigned_label": "Condition met"
  },
  {
    "molecule": "COC(=O)NC[C@H]1CN(c2cc(F)c(N3CCCOCC3)c(F)c2)C(=O)O1",
    "assigned_label": "Condition met"
  },
  {
    "molecule": "CC(=O)NC[C@H]1CN(c2ccc(N3CCCOCC3)c(F)c2)C(=O)O1",
    "assigned_label": "Condition met"
  },
  {
    "molecule": "CC(C)(C)OC(=O)NC[C@H]1CN(c2ccc(N3CCCOCC3)c(F)c2)C(=O)O1",
    "assigned_label": "Condition not met"
  },
  {
    "molecule": "O=C1O[C@@H](Cn2ccnn2)CN1c1cc(F)c(N2CCCOCC2)c(F)c1",
    "assigned_label": "Condition met"
  }
]

* * *

- Tested on: Streptococcus pyogenes
- test_description: Antibacterial activity against Streptococcus pyogenes C-203 by micro broth method
- Assay type: functional
Recorded log10(MIC) values for a group of compounds are listed next.
recorded_endpoint: log10(MIC) (log10 of the value in µg/mL)

[
  {
    "given_smiles": "O=C1O[C@@H](Cn2ccnn2)CN1c1ccc(N2CCCOCC2)cc1",
    "log10(MIC)": 0.90
  },
  {
    "given_smiles": "CNC(=O)[C@H]1CN(c2ccc(N3CCCOCC3)cc2)C(=O)O1",
    "log10(MIC)": 1.51
  },
  {
    "given_smiles": "CC(C)(C)OC(=O)NC[C@H]1CN(c2cc(F)c(N3CCCOCC3)c(F)c2)C(=O)O1",
    "log10(MIC)": 0.90
  },
  {
    "given_smiles": "CC(=O)NC[C@H]1CN(c2cc(F)c(N3CCCOCC3)c(F)c2)C(=O)O1",
    "log10(MIC)": 0.00
  },
  {
    "given_smiles": "NC(=O)[C@H]1CN(c2cc(F)c(N3CCCOCC3)c(F)c2)C(=O)O1",
    "log10(MIC)": 0.60
  },
  {
    "given_smiles": "CNC(=O)[C@H]1CN(c2cc(F)c(N3CCCOCC3)c(F)c2)C(=O)O1",
    "log10(MIC)": 0.60
  },
  {
    "given_smiles": "NC(=O)[C@H]1CN(c2ccc(N3CCCOCC3)c(F)c2)C(=O)O1",
    "log10(MIC)": 0.90
  },
  {
    "given_smiles": "CC(=O)NC[C@H]1CN(c2cc(F)c(N3CCCOCC3)c(F)c2F)C(=O)O1",
    "log10(MIC)": 0.30
  },
  {
    "given_smiles": "CC(C)(C)OC(=O)NC[C@H]1CN(c2ccc(N3CCCOCC3)cc2)C(=O)O1",
    "log10(MIC)": 1.51
  }
]

Reference for the values: ChEMBL document CHEMBL1154531
